Measured Absorbance ε (molar absorption coefficient) values are reported for all entries that follow.
method description: UV-visible absorbance spectroscopy
Type: physicochemical
recorded conditions: DMF, 0.1 mM; 7-MC in presence of 10 mM DTT

* Cc1cc(=O)oc2cc(S[C@@H]3O[C@H](C)[C@H](O)[C@H](O)[C@H]3O)ccc12 | 22.3 10^3 M^−1 cm^−1
* Cc1cc(=O)oc2cc(S[C@@H]3O[C@H](C(=O)O)[C@@H](O)[C@H](O)[C@H]3O)ccc12 | 26.7 10^3 M^−1 cm^−1

Consider the compound Cc1cc(=O)oc2cc(S)ccc12 [Compound 7-MC, 7-mercapto-4-methylcoumarin, reference compound] and give its recorded Absorbance ε (molar absorption coefficient). 10.4 10^3 M^−1 cm^−1

Consider the compound Cc1cc(=O)oc2cc(O)ccc12 [Compound 4-MUB, 4-methylumbelliferone, reference compound] and give its recorded Absorbance ε (molar absorption coefficient). 17.0 10^3 M^−1 cm^−1

Consider the compound Cc1cc(=O)oc2cc(S[C@H]3O[C@H](CO)[C@H](O)[C@H](O)[C@H]3O)ccc12 and give its recorded Absorbance ε (molar absorption coefficient). 22.3 10^3 M^−1 cm^−1

Consider the compound Cc1cc(=O)oc2cc(S[C@@H]3OC[C@@H](O)[C@H](O)[C@H]3O)ccc12 and give its recorded Absorbance ε (molar absorption coefficient). 19.5 10^3 M^−1 cm^−1

Consider the compound Cc1cc(=O)oc2cc(S[C@@H]3O[C@H](CO)[C@H](O)[C@H](O)[C@H]3O)ccc12 and give its recorded Absorbance ε (molar absorption coefficient). 22.3 10^3 M^−1 cm^−1

Consider the compound Cc1cc(=O)oc2cc(S[C@@H]3O[C@H](CO)[C@@H](O)[C@H](O)[C@H]3O)ccc12 and give its recorded Absorbance ε (molar absorption coefficient). 18.6 10^3 M^−1 cm^−1

----------
method description: UV-visible absorbance spectroscopy
Assay type: physicochemical
recorded conditions: PBS (PBS:DMF 99:1, pH 7.4), 0.1 mM; 7-MC in presence of 10 mM DTT
readout kind: Absorbance ε (molar absorption coefficient)

Some compounds with recorded Absorbance ε (molar absorption coefficient):
• Cc1cc(=O)oc2cc(S[C@@H]3O[C@H](C(=O)O)[C@@H](O)[C@H](O)[C@H]3O)ccc12 [Compound S-1] = 23.3 10^3 M^−1 cm^−1
• Cc1cc(=O)oc2cc(S[C@@H]3O[C@H](C)[C@H](O)[C@H](O)[C@H]3O)ccc12 [Compound S-5] = 10.4 10^3 M^−1 cm^−1
• Cc1cc(=O)oc2cc(S[C@@H]3O[C@H](CO)[C@H](O)[C@H](O)[C@H]3O)ccc12 [Compound S-4] = 18.4 10^3 M^−1 cm^−1

Consider the compound Cc1cc(=O)oc2cc(S[C@@H]3OC[C@@H](O)[C@H](O)[C@H]3O)ccc12 [Compound S-2] and give its recorded Absorbance ε (molar absorption coefficient). 26.0 10^3 M^−1 cm^−1

Consider the compound Cc1cc(=O)oc2cc(S[C@@H]3O[C@H](CO)[C@@H](O)[C@H](O)[C@H]3O)ccc12 [Compound S-3] and give its recorded Absorbance ε (molar absorption coefficient). 20.8 10^3 M^−1 cm^−1

Consider the compound Cc1cc(=O)oc2cc(S[C@H]3O[C@H](CO)[C@H](O)[C@H](O)[C@H]3O)ccc12 [Compound S-6] and give its recorded Absorbance ε (molar absorption coefficient). 19.8 10^3 M^−1 cm^−1

Consider the compound Cc1cc(=O)oc2cc(S)ccc12 [Compound 7-MC, 7-mercapto-4-methylcoumarin, reference compound] and give its recorded Absorbance ε (molar absorption coefficient). 28.9 10^3 M^−1 cm^−1

----------
Measured Absorbance λmax abs values are reported for all entries that follow.
method description: UV-visible absorbance spectroscopy
Assay type: physicochemical
recorded conditions: PBS (PBS:DMF 99:1, pH 7.4), 0.1 mM; 7-MC in presence of 10 mM DTT
Numeric only. Scale: nm

Some compounds with recorded Absorbance λmax abs:
* Cc1cc(=O)oc2cc(S[C@@H]3O[C@H](CO)[C@@H](O)[C@H](O)[C@H]3O)ccc12 [Compound S-3] | 326
* Cc1cc(=O)oc2cc(S)ccc12 [Compound 7-MC, 7-mercapto-4-methylcoumarin, reference compound] | 368
* Cc1cc(=O)oc2cc(S[C@H]3O[C@H](CO)[C@H](O)[C@H](O)[C@H]3O)ccc12 [Compound S-6] | 326
* Cc1cc(=O)oc2cc(S[C@@H]3O[C@H](C(=O)O)[C@@H](O)[C@H](O)[C@H]3O)ccc12 [Compound S-1] | 326
* Cc1cc(=O)oc2cc(O)ccc12 [Compound 4-MUB, 4-methylumbelliferone, reference compound] | 324

Consider the compound Cc1cc(=O)oc2cc(S[C@@H]3O[C@H](CO)[C@H](O)[C@H](O)[C@H]3O)ccc12 [Compound S-4] and give its recorded Absorbance λmax abs. 326

Consider the compound Cc1cc(=O)oc2cc(S[C@@H]3O[C@H](C)[C@H](O)[C@H](O)[C@H]3O)ccc12 [Compound S-5] and give its recorded Absorbance λmax abs. 326

Consider the compound Cc1cc(=O)oc2cc(S[C@@H]3OC[C@@H](O)[C@H](O)[C@H]3O)ccc12 [Compound S-2] and give its recorded Absorbance λmax abs. 324

----------
method description: UV-visible absorbance spectroscopy
Assay type: physicochemical
recorded conditions: DMF, 0.1 mM; 7-MC in presence of 10 mM DTT
readout kind: Absorbance λmax abs (nm)
Numeric only. Scale: nm

* Cc1cc(=O)oc2cc(S[C@@H]3OC[C@@H](O)[C@H](O)[C@H]3O)ccc12 [Compound S-2] | 330
* Cc1cc(=O)oc2cc(S[C@H]3O[C@H](CO)[C@H](O)[C@H](O)[C@H]3O)ccc12 [Compound S-6] | 330

Consider the compound Cc1cc(=O)oc2cc(S)ccc12 [Compound 7-MC, 7-mercapto-4-methylcoumarin, reference compound] and give its recorded Absorbance λmax abs. 328

Consider the compound Cc1cc(=O)oc2cc(S[C@@H]3O[C@H](C)[C@H](O)[C@H](O)[C@H]3O)ccc12 [Compound S-5] and give its recorded Absorbance λmax abs. 330

Consider the compound Cc1cc(=O)oc2cc(S[C@@H]3O[C@H](CO)[C@H](O)[C@H](O)[C@H]3O)ccc12 [Compound S-4] and give its recorded Absorbance λmax abs. 330

Consider the compound Cc1cc(=O)oc2cc(O)ccc12 [Compound 4-MUB, 4-methylumbelliferone, reference compound] and give its recorded Absorbance λmax abs. 322

Consider the compound Cc1cc(=O)oc2cc(S[C@@H]3O[C@H](C(=O)O)[C@@H](O)[C@H](O)[C@H]3O)ccc12 [Compound S-1] and give its recorded Absorbance λmax abs. 330

Consider the compound Cc1cc(=O)oc2cc(S[C@@H]3O[C@H](CO)[C@@H](O)[C@H](O)[C@H]3O)ccc12 [Compound S-3] and give its recorded Absorbance λmax abs. 330

----------
method description: UV-visible absorbance spectroscopy
Type: physicochemical
recorded conditions: DMF, 0.1 mM; 7-MC + DTT 10 mM
readout kind: emax (molar absorption coefficient)

Some compounds with recorded emax (molar absorption coefficient):
* Cc1cc(=O)oc2cc(S)ccc12 [Compound 7-MC, 7-mercapto-4-methylcoumarin, reference compound] | 10409,59 cm-1 M-1
* Cc1cc(=O)oc2cc(S[C@@H]3O[C@H](C(=O)O)[C@@H](O)[C@H](O)[C@H]3O)ccc12 [Compound S-1] | 26660,51579 cm-1 M-1
* Cc1cc(=O)oc2cc(S[C@@H]3O[C@H](C)[C@H](O)[C@H](O)[C@H]3O)ccc12 [Compound S-5] | 22294,93104 cm-1 M-1
* Cc1cc(=O)oc2cc(S[C@H]3O[C@H](CO)[C@H](O)[C@H](O)[C@H]3O)ccc12 [Compound S-6] | 22265,68277 cm-1 M-1
* Cc1cc(=O)oc2cc(S[C@@H]3O[C@H](CO)[C@@H](O)[C@H](O)[C@H]3O)ccc12 [Compound S-3] | 18634,68658 cm-1 M-1

Now let's try a different one.
Consider the compound Cc1cc(=O)oc2cc(S[C@@H]3O[C@H](CO)[C@H](O)[C@H](O)[C@H]3O)ccc12 [Compound S-4] and give its recorded emax (molar absorption coefficient). 22265,68277 cm-1 M-1

----------
Measured Relative quantum yield Φ values are reported for all entries that follow.
method description: Fluorescence excitation/emission spectroscopy and relative quantum yield
Type: physicochemical
recorded conditions: DMF; relative to 4-MUB in DMF; 7-MC in presence of 10 mM DTT
Form: value (number only, do not type unit).

* Cc1cc(=O)oc2cc(S[C@@H]3O[C@H](C)[C@H](O)[C@H](O)[C@H]3O)ccc12 | 0.183
* Cc1cc(=O)oc2cc(S[C@@H]3OC[C@@H](O)[C@H](O)[C@H]3O)ccc12 | 0.186
* Cc1cc(=O)oc2cc(S)ccc12 [Compound 7-MC, 7-mercapto-4-methylcoumarin, reference compound] | 0.009
* Cc1cc(=O)oc2cc(S[C@@H]3O[C@H](CO)[C@@H](O)[C@H](O)[C@H]3O)ccc12 | 0.198

Consider the molecule Cc1cc(=O)oc2cc(S[C@@H]3O[C@H](CO)[C@H](O)[C@H](O)[C@H]3O)ccc12 and give its recorded Relative quantum yield Φ. 0.223

Consider the molecule Cc1cc(=O)oc2cc(S[C@H]3O[C@H](CO)[C@H](O)[C@H](O)[C@H]3O)ccc12 and give its recorded Relative quantum yield Φ. 0.223

Consider the molecule Cc1cc(=O)oc2cc(S[C@@H]3O[C@H](C(=O)O)[C@@H](O)[C@H](O)[C@H]3O)ccc12 and give its recorded Relative quantum yield Φ. 0.182
